test system: Rattus norvegicus; test: Concentration (30 mg/kg, p.o.) in rat hypothalamus after 2 hours; type: ADME, organism-based; conditions: in vivo, po, 2 h
reported-metric: Concentration

Problem: State its Concentration for this molecule: `O=C([C@@H]1CCCO1)N1CCC(CNc2nc3c(s2)CCCc2ccc(F)cc2-3)CC1`
Solution: 6.69 µg/g

---

target: Neuropeptide Y receptor type 5 (Homo sapiens); test: In vitro binding affinity against human neuropeptide Y5 receptor
pIC50: −log10 of the molar value.
Returns one of T or F; T when pIC50 is >= 8.

Example cases with answers are listed next.
>>> assigned_class("O=C1CCCN1[C@H]1CC[C@H](CNc2nc3c(s2)CCCc2ccc(F)cc2-3)CC1")
"T"
>>> assigned_class("CN(C)C(=O)CCCCNc1nc2c(s1)CCCc1ccc(F)cc1-2")
"F"
>>> assigned_class("Cc1ccc2c(c1)-c1nc(NCC3CCN(C(=O)[C@H]4CCCO4)CC3)sc1CCO2")
"T"

Problem: Evaluate `CC(C)C(=O)N1CCC(CNc2nc3c(s2)CCOc2cc(Cl)c(F)cc2-3)CC1` : pIC50 at minimum 8?
Solution: F

Problem: Evaluate `CCOCC(=O)N1CCC(CNc2nc3c(s2)CCOc2ccc(C)cc2-3)CC1` : pIC50 at minimum 8?
Solution: F

Problem: Evaluate `CS(=O)(=O)NC[C@H]1CC[C@H](Nc2nc(-c3ccc(F)cc3)cs2)CC1` : pIC50 at minimum 8?
Solution: F

Problem: Evaluate `CCOC(=O)N1CCC(CNc2nc3c(s2)CCCc2ccc(F)cc2-3)CC1` : pIC50 at minimum 8?
Solution: T

---

experiment: Concentration (30 mg/kg, p.o.) in rat plasma after 6 hours; format: ADME, organism-based; settings: plasma, po
reported-metric: concentration at 6 h (ng/mL)
Express the result in ng/mL but write the number alone.

Worked set:
>>> readout_number("CCCCC(=O)N1CCC(CNc2nc3c(s2)CCOc2ccc(F)cc2-3)CC1")
70
>>> readout_number("O=C([C@@H]1CCCO1)N1CCC(CNc2nc3c(s2)CCOc2ccc(F)cc2-3)CC1")
140
>>> readout_number("O=C([C@H]1CCCO1)N1CCC(CNc2nc3c(s2)CCCc2ccc(F)cc2-3)CC1")
220
>>> readout_number("Cc1ccc2c(c1)-c1nc(NCC3CCN(C(=O)C(C)C)CC3)sc1CCO2")
330
>>> readout_number("CC(=O)N1CCC(CNc2nc3c(s2)CCCc2ccc(F)cc2-3)CC1")
70
>>> readout_number("O=C(C1CCOC1)N1CCC(CNc2nc3c(s2)CCCc2ccc(F)cc2-3)CC1 (stereo not drawn)")
140

Problem: State its concentration at 6 h for this compound: `O=C([C@H]1CCCO1)N1CCC(CNc2nc3c(s2)CCOc2ccc(F)cc2-3)CC1`
Solution: 390

Problem: State its concentration at 6 h for this compound: `Cc1ccc2c(c1)-c1nc(NCC3CCN(C(=O)[C@H]4CCCO4)CC3)sc1CCO2`
Solution: 260

---

Listing: IC50 of selected compounds
target: Neuropeptide Y receptor type 5 (Homo sapiens, UniProt Q15761); assay: In vitro binding affinity against human neuropeptide Y5 receptor
Sequence (Q15761 whole entry): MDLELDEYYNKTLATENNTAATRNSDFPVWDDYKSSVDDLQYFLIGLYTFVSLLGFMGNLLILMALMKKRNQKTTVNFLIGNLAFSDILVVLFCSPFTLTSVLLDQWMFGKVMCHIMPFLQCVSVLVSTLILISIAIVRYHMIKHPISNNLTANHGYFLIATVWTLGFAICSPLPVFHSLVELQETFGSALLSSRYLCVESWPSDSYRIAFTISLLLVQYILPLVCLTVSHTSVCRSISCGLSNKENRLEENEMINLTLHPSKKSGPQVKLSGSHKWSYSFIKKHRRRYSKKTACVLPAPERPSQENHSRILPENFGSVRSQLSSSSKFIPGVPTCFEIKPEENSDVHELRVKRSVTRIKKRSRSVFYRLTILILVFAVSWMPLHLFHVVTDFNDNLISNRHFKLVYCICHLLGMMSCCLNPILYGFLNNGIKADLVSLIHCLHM
Express the result in nM but write the number alone.

>>> readout_number("O=C(CCN1CCCCC1)N[C@H]1CC[C@H](CNc2nc3c(s2)CCCc2ccc(F)cc2-3)CC1")
150
>>> readout_number("CC(C)C(=O)N1CCC(CNc2nc3c(s2)CCOc2cc(F)c(F)cc2-3)CC1")
40
>>> readout_number("COCCCNCC(=O)N1CCC(CNc2nc3c(s2)CCCc2ccc(F)cc2-3)CC1")
15

Problem: State its IC50 for this compound: `O=C(CN1CCCCC1)N1CCC(CNc2nc3c(s2)CCCc2ccc(Cl)cc2-3)CC1`
Solution: 7

---

biological target: Neuropeptide Y receptor type 5 (Homo sapiens); experiment: In vitro binding affinity against human neuropeptide Y5 receptor
Listing: pIC50 of selected compounds
In textbook form, pIC50 equals minus log to base ten of the concentration in mol/L.

>>> readout_number("O=C(N[C@H]1CC[C@H](CNc2nc3c(s2)CCCc2ccc(F)cc2-3)CC1)c1cccs1")
7.82
>>> readout_number("CCCCC(=O)N[C@H]1CC[C@H](CNc2nc3c(s2)CCCc2ccc(F)cc2-3)CC1")
8.22
>>> readout_number("CCCCC(=O)N1CCC(CNc2nc3c(s2)CCOc2ccc(OC)cc2-3)CC1")
7.77
>>> readout_number("CCCCC(=O)N1CCC(CNc2nc3c(s2)CCOc2ccc(F)cc2-3)CC1")
8.15
>>> readout_number("O=C(CNCC1CCCO1)N1CCC(CNc2nc3c(s2)CCCc2ccc(F)cc2-3)CC1 (stereo not given)")
8.22
>>> readout_number("Cc1ccc2c(c1)-c1nc(NCC3CCN(C(=O)[C@@H]4CCCO4)CC3)sc1CCO2")
7.77

Problem: State its pIC50 for this compound: `Cc1ccc2c(c1)-c1nc(NCC3CCN(C(=O)COC(C)C)CC3)sc1CCO2`
Solution: 7.68

Problem: State its pIC50 for this compound: `COC[C@@H]1CCCN1CC(=O)N1CCC(CNc2nc3c(s2)CCCc2ccc(F)cc2-3)CC1`
Solution: 8.52

Problem: State its pIC50 for this compound: `O=C([C@@H]1CCCO1)N1CCC(CNc2nc3c(s2)CCCc2ccc(F)cc2-3)CC1`
Solution: 8.70

Problem: State its pIC50 for this compound: `O=C(CN1CCCCC1)N1CCC(CNc2nc3c(s2)CCCc2ccc(F)cc2-3)CC1`
Solution: 8.40
